Molecular target: T1, Human LAG3-His: [VEGF leader]-LAG3_H-[His9G] (human, UniProt P18627 23-450)
T1 construct: also called human LAG3-His tagged recombinant protein; hLAG3-His
T1 sequence: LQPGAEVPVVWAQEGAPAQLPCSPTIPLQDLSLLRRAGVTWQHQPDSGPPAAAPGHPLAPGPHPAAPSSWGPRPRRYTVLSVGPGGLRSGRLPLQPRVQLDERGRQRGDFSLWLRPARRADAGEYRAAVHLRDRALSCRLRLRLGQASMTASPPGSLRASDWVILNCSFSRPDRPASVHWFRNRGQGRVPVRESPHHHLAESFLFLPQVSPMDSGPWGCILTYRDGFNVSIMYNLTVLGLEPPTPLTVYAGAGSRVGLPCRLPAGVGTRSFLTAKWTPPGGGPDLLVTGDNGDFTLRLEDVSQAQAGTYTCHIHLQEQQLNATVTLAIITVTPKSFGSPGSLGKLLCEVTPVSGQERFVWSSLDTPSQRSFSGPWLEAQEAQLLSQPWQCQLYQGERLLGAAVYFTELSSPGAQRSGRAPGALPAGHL
Assay: SPR (Biacore T200), antibody captured on goat anti-mouse Fc, human LAG3-His as analyte, 1:1 Langmuir fit
Readout Name: koff (s⁻¹)
Report as a plain number; the unit s⁻¹ is understood.

For reference, reported koff for mouse anti-human LAG3 antibody LB148.11C9.1C1 (antibody, mouse IgG1, V domains shown, also called Lag3 clone 11C9) VH: QVQLQQPGAELVMPGASAKMSCKASGYTLTDYWMHWVKQRPGQGLEWIGAIDISDSYSSYNQKFKGKATLTVDESSSTAYMQLTSLTSEDSAVYYCARSPFYNSRGGNYFDYWGQGTTLTVSS VL: DIQMTQTTSSLSASLGDRVTISCRASQDISNYLNWYQQKPDGTVKLLIYYTSRLHSGVPSRFSGSGSGTDYSLTISNLEQEDIATYFCQQGDTLPPWTFGGGTKLEIK stands at 0.00192

So, mouse anti-human LAG3 antibody LB145.22D2.E1.1D1 (antibody, mouse IgG2a, V domains shown, also called Lag3 clone 22D2; LB145.22D2.E1.D1) VH: EVLLLQSGPELVKPGTSVKIPCKASGYTFTDYNVDWVKQRHGKGLEWIGDINPNNGGTIYSQKFKGKATLTVDKSSSTAFMELRSLTSEDTAVYFCARNYRWFGAMDHWGQGTSVTVSS VL: DIVLTQSPASLAVSPGQRATISCKASQSLDYEGDSDMNWYQQKPGQPPRLLISGASNLESGIPARFSGSGSGTDFTVNIHPVEEEDAATYYCQQSTEDPRTFGGGTKLEIK ? Its koff was 3.84e-05

response.value for mouse anti-human LAG3 antibody LB148.19E8.G1.1A1 (antibody, mouse IgG2b, V domains shown, also called Lag3 clone 19E8) VH: QIRLQQSGPELVKPGASVKISCKASGSSFTDYYINWVKQKPGQGLEWIGWIYPGSGNSIYNENFKAKATLTVDTSSSTAYMHLSSLTSEDTAVYFCAREADYDDALDYWGQGTSVTVSS VL: HILLTQSPAILSVSPGERVSFSCRASQSIGTSIHWYQQRTNGSPRLLIKYASESISGIPSRFSGSGSGTDFTLSINSVESEDIADYYCQQSNSWPTYTFGGGTKLEIK (field: koff) = 0.000109
